Reported IC25 growth inhibition is given for each of the following compounds.
System: Dorea formicigenerans
Test name: IC25 growth inhibition; higher = less potent;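 note: lowest concentration where monotonic median growth AUC falls below 0.75 of drug-free control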
Assay readout: IC25 growth inhibition

1. C[C@H]1c2cccc(O)c2C(=O)C2=C(O)[C@]3(O)C(=O)C(C(N)=O)=C(O)[C@@H](N(C)C)[C@@H]3[C@@H](O)[C@@H]21	< 1250 nM
2. Clc1ccc(Cn2c(CN3CCCC3)nc3ccccc32)cc1	≤ 2500 nM
3. CNCCC(Oc1ccc(C(F)(F)F)cc1)c1ccccc1 (stereo not drawn)	≤ 40000 nM

###

Quick list: IC25 growth inhibition per entry.
Test system: Fusobacterium nucleatum subsp. Nucleatum
Test name: IC25 growth inhibition; higher = less potent
Assay readout: IC25 growth inhibition

1. CCOC(=O)C1=C(C)NC(C)=C(C(=O)OC)C1c1cccc(Cl)c1Cl (stereo not drawn)	> 40 µM
2. C[C@@H](O[C@H]1OCCN(Cc2n[nH]c(=O)[nH]2)[C@H]1c1ccc(F)cc1)c1cc(C(F)(F)F)cc(C(F)(F)F)c1 [Aprepitant]	> 160 µM
3. Cc1c(OCC(F)(F)F)ccnc1C[S+]([O-])c1nc2ccccc2[nH]1 (stereo not drawn)	> 160 µM
4. CCc1oc2ccccc2c1C(=O)c1cc(Br)c(O)c(Br)c1	≤ 80 µM
5. CCOC1O[C@H]([C@@H](COCc2ccccc2)OCc2ccccc2)[C@H](OCc2ccccc2)[C@H]1O (stereo partly drawn) [Tribenoside]	> 40 µM
6. CCOC(=O)C1=C(COCCN)NC(C)=C(C(=O)OC)C1c1ccccc1Cl (stereo not drawn)	≤ 80 µM
7. CN(N=O)C(=O)N[C@@H](C=O)[C@@H](O)[C@H](O)[C@H](O)CO	< 1.25 µM
8. N=C(N)c1ccc(OCCCCCOc2ccc(C(=N)N)cc2)cc1 [Pentamidine Isothionate]	≤ 10 µM
9. COCCOC(=O)C1=C(C)NC(C)=C(C(=O)OC/C=C/c2ccccc2)C1c1cccc([N+](=O)[O-])c1 (stereo not drawn)	> 10 µM
10. COc1ccc2[nH]c([S+]([O-])Cc3ncc(C)c(OC)c3C)nc2c1 (stereo not drawn)	> 160 µM
11. CN(C)CC/C=C1/c2ccccc2Sc2ccc(Cl)cc21	≤ 80 µM
12. O=C1CCc2ccc(OCCCCN3CCN(c4cccc(Cl)c4Cl)CC3)cc2N1	> 160 µM
13. CC(C)(O)c1ccccc1CC[C@@H](SCC1(CC(=O)O)CC1)c1cccc(/C=C/c2ccc3ccc(Cl)cc3n2)c1	> 80 µM

###

The entries below come with measured IC25 growth inhibition values attached.
System: Dorea formicigenerans
Test name: IC25 growth inhibition; higher = less potent
Assay readout: IC25 growth inhibition

1. Clc1ccccc1C(c1ccccc1)(c1ccccc1)n1ccnc1	≤ 10 µM
2. CCC(C)(C)C(=O)O[C@H]1C[C@@H](C)C=C2C=C[C@H](C)[C@H](CC[C@@H]3C[C@@H](O)CC(=O)O3)[C@H]21	≤ 80 µM
3. COc1cc(C(=O)NS(=O)(=O)c2ccccc2C)ccc1Cc1cn(C)c2ccc(NC(=O)OC3CCCC3)cc12	≤ 40 µM
4. CC(=O)Oc1cccc2c1C(=O)c1c(OC(C)=O)cc(C(=O)O)cc1C2=O	< 1.25 µM
5. CN(Cc1cnc2nc(N)nc(N)c2n1)c1ccc(C(=O)N[C@@H](CCC(=O)O)C(=O)O)cc1 [Methotrexate]	≤ 40 µM
6. O=C(O)Cc1cc(I)c(Oc2ccc(O)c(I)c2)c(I)c1	≤ 80 µM
7. C[C@]12CCC3=C4CCC(=O)C=C4CC[C@H]3[C@@H]1CC[C@@]2(O)CC#N	> 80 µM
8. CCOC(=O)N1CCC(=C2c3ccc(Cl)cc3CCc3cccnc32)CC1	> 160 µM
9. CO[C@@H]1[C@@H](OC(N)=O)[C@@H](O)[C@H](Oc2ccc3c(O)c(NC(=O)c4ccc(O)c(CC=C(C)C)c4)c(=O)oc3c2C)OC1(C)C	< 1.25 µM
10. CCn1cc(C(=O)O)c(=O)c2cc(F)c(N3CCNCC3)cc21	≤ 10 µM
11. CCOC(=O)C1=C(C)NC(C)=C(C(=O)OC)C1c1cccc(Cl)c1Cl (stereo unspecified)	≤ 20 µM
12. CC(CN1c2ccccc2Sc2ccccc21)N(C)C (stereo unspecified)	≤ 160 µM
13. O=c1[nH]c(=O)n([C@H]2C[C@H](O)[C@@H](CO)O2)cc1F	> 160 µM
14. CC[C@H]1OC(=O)[C@H](C)[C@@H](O[C@H]2C[C@@](C)(OC)[C@@H](O)[C@H](C)O2)[C@H](C)[C@@H](O[C@@H]2O[C@H](C)C[C@H](N(C)C)[C@H]2O)[C@](C)(OC)C[C@@H](C)C(=O)[C@H](C)[C@@H](O)[C@]1(C)O	< 1.25 µM
15. Clc1ccc(COC(Cn2ccnc2)c2ccc(Cl)cc2Cl)c(Cl)c1 (stereo unspecified)	≤ 5 µM
16. Cc1ncc([N+](=O)[O-])n1CCO	< 1.25 µM
17. Cc1c(OCC(F)(F)F)ccnc1C[S+]([O-])c1nc2ccccc2[nH]1 (stereo unspecified)	≤ 160 µM
18. CCN(CC)CCOc1ccc(C(=C(Cl)c2ccccc2)c2ccccc2)cc1	≤ 10 µM
19. CN1CCN(C2=Nc3ccccc3Oc3ccc(Cl)cc32)CC1	≤ 160 µM
20. Nc1nc(=S)c2ncn([C@@H]3O[C@H](CO)[C@@H](O)[C@H]3O)c2[nH]1	> 40 µM
21. Cc1c(N(C)CS(=O)(=O)O)c(=O)n(-c2ccccc2)n1C	> 160 µM
22. C/C=C(/C(=C/C)c1ccc(O)cc1)c1ccc(O)cc1	≤ 10 µM
23. CC(C)(C)c1ccc(C(O)CCCN2CCC(C(O)(c3ccccc3)c3ccccc3)CC2)cc1 (stereo unspecified)	≤ 20 µM
24. CC[C@H]1OC(=O)[C@H](C)[C@@H](O[C@H]2C[C@@](C)(OC)[C@@H](O)[C@H](C)O2)[C@H](C)[C@@H](O[C@@H]2O[C@H](C)C[C@H](N(C)C)[C@H]2O)[C@](C)(O)C[C@@H](C)C(=O)[C@H](C)[C@@H](O)[C@]1(C)O	< 1.25 µM
25. C[C@]1(Cn2ccnn2)[C@H](C(=O)O)N2C(=O)C[C@H]2S1(=O)=O	≤ 20 µM
26. C#C[C@]1(O)CC[C@H]2[C@@H]3CCc4cc(O)ccc4[C@H]3CC[C@@]21C	> 80 µM

Data provenance: the supplement of paper PMC12350171
